assay: Pharmacokinetic assay in rat; details: male SD rats, i.g. 20 mg/kg in 10% PEG400, plasma parent compound 3 measured
test-readout: AUC(0-t)

compound	readout-value
Cc1c(COC(=O)CN)c(=O)oc2c3c(ccc12)OC(C)(C)[C@H](OC(=O)[C@@]12CCC(C)(C(=O)O1)C2(C)C)[C@@H]3OC(=O)[C@@]12CCC(C)(C(=O)O1)C2(C)C (relative stereo)	384.1 ± 6.21 ng·L/mL

Documented AUC(0-t) of Cc1c(COC(=O)C(N)CC(C)C)c(=O)oc2c3c(ccc12)OC(C)(C)[C@H](OC(=O)[C@@]12CCC(C)(C(=O)O1)C2(C)C)[C@@H]3OC(=O)[C@@]12CCC(C)(C(=O)O1)C2(C)C (relative stereo) : 775.6 ± 162.9 ng·L/mL

From: paper PMC3655773
